Test system: Enterococcus faecalis Enfa_bc 11148-2
Test: MIC, broth microdilution (NCCLS)
Format: cell-based
Conditions: strain ID F; broth microdilution; in µg/mL (unit assumed)
This listing pairs molecules with measured MIC, strain ID F.
Reply: number alone, nothing else.

Examples with their reported MIC, strain ID F follow.
C=C[C@]12OC(=O)N(CCCCn3cnc(-c4cccnc4Cl)c3)[C@@H]1[C@@H](C)C(=O)[C@H](C)C[C@](C)(OC)[C@H](OC1O[C@H](C)C[C@H](N(C)C)[C@H]1O)[C@@H](C)C(=O)[C@@H](C)C(=O)O[C@@H]2CC (stereo partly shown) [XXXVI]; 1.56
C=C[C@]12OC(=O)N(CCCCn3cnc(-c4cnccc4OC)c3)[C@@H]1[C@@H](C)C(=O)[C@H](C)C[C@](C)(OC)[C@H](OC1O[C@H](C)C[C@H](N(C)C)[C@H]1O)[C@@H](C)C(=O)[C@@H](C)C(=O)O[C@@H]2CC (stereo partly shown) [XXXV]; 0.78

Q: What MIC, strain ID F value was documented for this molecule, C=C[C@]12OC(=O)N(CCCCn3cnc(-c4cnccc4Cl)c3)[C@@H]1[C@@H](C)C(=O)[C@H](C)C[C@](C)(OC)[C@H](OC1O[C@H](C)C[C@H](N(C)C)[C@H]1O)[C@@H](C)C(=O)[C@@H](C)C(=O)O[C@@H]2CC (stereo partly shown) [XXX] ?
A: 0.4

Q: What MIC, strain ID F value was documented for this molecule, C=C[C@]12OC(=O)N(CCCCn3cc(-c4ccc(Cl)nc4)nc3C)[C@@H]1[C@@H](C)C(=O)[C@H](C)C[C@](C)(OC)[C@H](OC1O[C@H](C)C[C@H](N(C)C)[C@H]1O)[C@@H](C)C(=O)[C@@H](C)C(=O)O[C@@H]2CC (stereo partly shown) [XXIX] ?
A: 3.13

Source listed as patent US7332476B2.
